Target: benzodiazepine site (BZD-S) of the GABAA receptor
Test: Radioligand receptor binding, displacement of [3H]-flunitrazepam (Example 1)
Conditions: read-out: Inhibition of 3H-Flunitrazepam IC50; 1 nM [3H]-flunitrazepam, rat whole brain synaptosomal membrane
result.type: IC50 (nM)
Provide the reading as a plain figure in nM.

For the compound COc1c(O)c(OC)c2oc(-c3ccccc3O)cc(=O)c2c1O [Compound 1, 5,7,2′-trihydroxy-6,8-dimethoxyflavone] , the measured IC50 on benzodiazepine site (BZD-S) of the GABAA receptor was 1.5

----------
Molecular target: benzodiazepine binding site
Experiment: Inhibition of [3H]-flunitrazepam by 2′ flavonoid derivatives (Example 7)
result.type: IC50 (nM)
Provide the reading as a plain figure in nM.

Recorded result, COc1ccc2oc(-c3ccccc3N)cc(=O)c2c1 , IC50: 2000

----------
Molecular target: benzodiazepine site (BZD-S) of the GABAA receptor
result.type: Ki (nM)
Provide the reading as a plain figure in nM.

For the compound COc1c(O)c(OC)c2oc(-c3ccccc3O)cc(=O)c2c1O [Compound 1, 5,7,2′-trihydroxy-6,8-dimethoxyflavone] , the measured Ki on benzodiazepine site (BZD-S) of the GABAA receptor was 1.1

----------
Biological target: BZD-S
Assay: Radio-receptor binding assay, [3H]flunitrazepam, forebrain crude synaptosomal fraction (Example 3)
Details: 1 nM [3H]flunitrazepam, rat forebrain; read-out: Inhibition of 3H-Flunitrazepam Ki
result.type: pKi
Just so you know, pKi here is -log10 of the concentration in molar units; reply with that number alone.

>>> df
                                   compound  target_under_test  result_value
0  COc1c(O)c(OC)c2oc(-c3ccccc3O)cc(=O)c2c1O [Compound 1, 5,7,2′-trihydroxy-6,8-dimethoxyflavone]              BZD-S          8.96

Would you kindly look at the next entry?
Recorded result, CN1C(=O)CN=C(c2ccccc2)c2cc(Cl)ccc21 [Diazepam, reference compound] , pKi: 8.02
